# test-system: T7 RNA Polymerase (Escherichia phage T7, UniProt P00573)
# Sequence (P00573 whole entry): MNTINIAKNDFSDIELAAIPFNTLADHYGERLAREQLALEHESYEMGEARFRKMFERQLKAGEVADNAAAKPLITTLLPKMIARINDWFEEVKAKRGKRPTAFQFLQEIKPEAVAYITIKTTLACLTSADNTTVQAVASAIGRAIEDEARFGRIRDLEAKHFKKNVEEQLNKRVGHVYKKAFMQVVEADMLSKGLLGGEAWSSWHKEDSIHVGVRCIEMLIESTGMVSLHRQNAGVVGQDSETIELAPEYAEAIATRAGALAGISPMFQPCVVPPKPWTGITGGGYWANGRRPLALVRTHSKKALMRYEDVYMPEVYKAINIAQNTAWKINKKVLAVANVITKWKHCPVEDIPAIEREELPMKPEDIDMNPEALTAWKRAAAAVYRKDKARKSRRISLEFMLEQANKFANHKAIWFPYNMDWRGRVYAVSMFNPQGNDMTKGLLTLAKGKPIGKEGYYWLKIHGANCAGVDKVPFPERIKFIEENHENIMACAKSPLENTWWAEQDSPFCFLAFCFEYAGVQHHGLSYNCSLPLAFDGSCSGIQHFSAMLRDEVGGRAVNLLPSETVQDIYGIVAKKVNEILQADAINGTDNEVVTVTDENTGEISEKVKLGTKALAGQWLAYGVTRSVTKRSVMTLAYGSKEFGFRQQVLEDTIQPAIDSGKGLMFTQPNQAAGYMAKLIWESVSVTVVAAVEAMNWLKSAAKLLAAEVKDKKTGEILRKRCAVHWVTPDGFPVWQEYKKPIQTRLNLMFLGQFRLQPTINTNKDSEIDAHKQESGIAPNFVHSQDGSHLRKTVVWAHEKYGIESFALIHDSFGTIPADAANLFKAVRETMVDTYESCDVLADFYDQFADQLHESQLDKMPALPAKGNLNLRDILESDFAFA
# test: Cotranscriptional capping of hEPO mRNA by in vitro transcription (capping fraction)
# Assay type: biochemical
# experimental-conditions: hEPO mRNA used in the in vivo assay
The entries below come with measured capping %/100 values attached.
The figure you give is taken to be in %/100; do not add the unit.

Nc1nc2c(ncn2[C@@H]2O[C@H](COP(=O)(O)OP(=O)([O-])OP(=O)(O)OC[C@H]3O[C@@H](n4c[n+](CCOc5ccc(Cl)cc5)c5c(=O)[nH]c(N)nc54)[C@@H](O)[C@@H]3O)[C@@H](O)[C@H]2O)c(=O)[nH]1 [Compound 005-35] :: 1
CO[C@@H]1[C@H](O)[C@@H](COP(=O)(O)OP(=O)(O)OP(=O)(O)OC[C@H]2O[C@@H]([n+]3cn(C)c4c(=O)[nH]c(N)nc43)[C@H](O)[C@@H]2O)O[C@H]1n1cnc2c(=O)[nH]c(N)nc21 [Cap1, m7GpppG(2′-Om), reference compound] :: 1
CN1CC(COP(=O)(O)OP(=O)([O-])OP(=O)(O)OC[C@H]2O[C@@H](n3cnc4c(=O)[nH]c(N)nc43)[C@H](O)[C@@H]2O)OC(n2c[n+](CCOc3ccc(Cl)cc3)c3c(=O)[nH]c(N)nc32)C1 (stereo partly drawn) [Compound 006-45] :: 0.95

Please examine the following record next.
Retrieve capping %/100 on T7 RNA Polymerase (Escherichia phage T7, UniProt P00573); query C[n+]1cn([C@@H]2O[C@H](COP(=O)([O-])OP(=O)([O-])OP(=O)(O)OC[C@H]3O[C@@H](n4c[n+](C)c5c(=O)[nH]c(N)nc54)[C@H](O)[C@@H]3O)[C@@H](O)[C@H]2O)c2nc(N)[nH]c(=O)c21 [Compound 005-10]
0.91
